Entry source: PubChem BioAssay

method-notes: HepG2 cytotoxicity, primary screen, cytotoxicity control for P. falciparum antimalarial project, cell-based, ATP luminescence (AID 2303);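 also: 0% = DMSO wells and 100% = digitonin-killed cells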
particulars: HepG2 viability, 24-48 h, at 10 µM
The source made the active and inactive calls.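 The calls were made as follows: active = inhibition above 50%; inactive = the rest.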
Outcomes you can answer with include only these: label 1 (active), label 0 (inactive)

Known results for compounds:
* CN(C)CC1CCCN1Cc1ccccc1-c1cnn(C)c(=O)c1Oc1ccc(F)cc1 (stereo not given) | label 0
* Cc1occc1C(=O)Nc1nc(-c2ccccn2)nc2ccsc12 | label 1
* Cc1ccccc1C1CCN(c2ncc(C(=O)Nc3ccccc3)cc2Cl)CC1 | label 0
* O=c1cc(NCCCCNCc2cccc(Cl)c2)[nH]c2ccccc12 | label 0
* O=C(NCc1ccc(Cl)c(Cl)c1)c1ccc(-c2nc3cc(F)c(F)cc3[nH]2)cc1 | label 0
* CCC(COCc1ccc(Cl)cc1)N(C)CCN(C)C(CC)COCc1ccc(Cl)cc1 (stereo not given) | label 1
* O=C(Cc1ccc(F)cc1)NC1CCN(c2ccnc3cc(Cl)ccc23)C1 (stereo not given) | label 0
* Cc1cc(NN=Cc2ccc(Cl)cc2)c2cc(C(F)(F)F)ccc2n1 | label 0
* c1ncc(CCNc2nc(Nc3ccc4c(c3)OCO4)nc(NC3CCCC3)n2)[nH]1 | label 0

Could you now look at the following compound, please?
Incoming: Test call, this compound: CC(C)CCN1CCC(Oc2ccc(NC(=O)c3ccccc3)cc2Cl)CC1
Outgoing: label 0

###

method-notes: antimalarial activity against Dd2 strain (AID 2302);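 also: 0% = DMSO untreated growth and 100% = chloroquine plus artemisinin killed control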
particulars: P. falciparum Dd2 in RBCs, LDH growth readout, 72 h; at 2 µM; stronger effect = higher value
quantity: growth inhibition (%)
Field format: number, assumed %, no unit text.

* CCCCCCCN1CC[C@@H](CCCc2ccnc3ccc(OCCN4CCOCC4)cc23)[C@@H](CC)C1 | 3
* COc1ccc2ncc(F)c(CCN3C[C@H](CNCc4ccc5c(c4)OCCO5)[C@H](O)C3)c2n1 | 35
* N#Cc1cccc(NC(=O)NC2CCN(CCCCCNC(=O)/C=C/c3ccc(Cl)c(Cl)c3)CC2)c1 | 7

Incoming: Item OCCN1CCN(Cc2ccc(-c3ccc(-c4nc5ccccc5[nH]4)cc3)cc2)CC1 has what recorded growth inhibition?
Outgoing: 58

Incoming: Thanks! And c1cc(CN2CCCCC2)cc(-c2ccc(-c3nc4ccccc4[nH]3)cc2)c1 ?
Outgoing: 88

###

method-notes: inhibition of 3D7 malaria parasite growth – strain 3D7 (AID 2306);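 also: 0% = DMSO wells and 100% = chloroquine plus artemisinin control wells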
particulars: P. falciparum 3D7 erythrocytic growth, LDH absorbance, 72 h; at 2 µM; stronger effect = higher value
# growth inhibition annotations
Field format: number, assumed %, no unit text.

- CCCCN(C)CC#Cc1ccc2[nH]c(C)c(Cl)c(=O)c2c1: 98
- O=C(Nc1cccc(CN2CCN(C(=O)c3cccc(Cl)c3)CC2)c1)c1cccs1: 94
- CS(=O)(=O)Nc1ccc(OCCCCCCOc2ccc(NS(C)(=O)=O)cc2)cc1: 93
- CN(C)c1cccc2c1nc(-c1ccco1)n2CCNCc1ccccc1: 98
- O=c1cc(NCCCNCc2cc(C(F)(F)F)ccc2F)[nH]c2ccccc12: 94
- Cc1cc(N(C)C)nc(Nc2ccc(NC(=O)C3CCCCC3)cc2)n1: 101
- O=C(Nc1ccc(Cl)c(Cl)c1)Nc1ccc2c(c1)CCNCC2: 86
- CCNc1cc(C)nc(Nc2ccc(NC(=O)c3ccccc3Br)cc2)n1: 100

Incoming: Item CCN(CCCN1CCCCC1)c1cc(C)nc(Nc2ccc(Cl)c(C(F)(F)F)c2)n1 has what recorded growth inhibition?
Outgoing: 96

Incoming: Thanks! And COc1ccc(-n2c(=O)c3c(n4c(SC(C)C)nnc24)-c2ccccc2CC32CCCCC2)cc1 ?
Outgoing: 99

Incoming: Thanks! And c1ccc(CN2CCC(Nc3ccc(-c4cn[nH]c4-c4ccccn4)nc3)CC2)cc1 ?
Outgoing: 97

Incoming: Thanks! And O=S(=O)(Nc1cccc(CCN2CCCCC2CCN2CCCC2)c1)c1ccc2ccccc2c1 (stereo not given) ?
Outgoing: 91

Incoming: Thanks! And COCCNCc1cccc(-c2cccc(CNC3CCN(Cc4ccccc4)CC3)c2)c1 ?
Outgoing: 101

Incoming: Thanks! And COc1c(C=NNc2nc(Nc3ccccc3)nc(Nc3ccccc3)n2)ccc(Br)c1O ?
Outgoing: 98

Incoming: Thanks! And CNC(=O)c1cc(NCCCNCc2ccc(Cl)c(C(F)(F)F)c2)nc2ccccc12 ?
Outgoing: 91

Incoming: Thanks! And O=C(Nc1ccccc1)N(Cc1ccc(-c2cccc(CNCc3ccc4c(c3)OCO4)c2)cc1)C1CCN(Cc2ccccc2)CC1 ?
Outgoing: 100

Incoming: Thanks! And COc1ccc(NS(=O)(=O)c2ccc(C(=O)Nc3ccc(C(F)(F)F)cc3)cc2)cc1N1CCN(CC2CC2)CC1 ?
Outgoing: 92

Incoming: Thanks! And O=C(CCn1c2ccccc2c2ccccc21)NN=Cc1ccco1 ?
Outgoing: 96

Incoming: Thanks! And Nc1nc(N)c2c(Oc3cccnc3)cccc2n1 ?
Outgoing: 93

Incoming: Thanks! And CC(C)C[C@@H]1C(=O)N[C@H](C2Cc3ccccc3C2)C(=O)N1[C@@H](C(=O)O)c1ccc(F)cc1F ?
Outgoing: 98

###

# growth inhibition annotations
method-notes: inhibition of 3D7 malaria parasite growth – strain 3D7 (AID 2306);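 also: 0% = DMSO wells and 100% = chloroquine plus artemisinin control wells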
particulars: P. falciparum 3D7 erythrocytic growth, LDH absorbance, 72 h; at 2 µM; stronger effect = higher value
Field format: number, assumed %, no unit text.

Consider the following illustrative entries.
- CC[C@H](C)[C@@H](C(=O)N1CCOCC1)N1CC[C@H](NS(=O)(=O)CC(C)(C)c2ccc(Cl)cc2)C1=O: 101
- COc1cccc(-c2ccc3c(-c4cccc(NC(C)=O)c4)cnc(N)c3c2)c1: 99
- Cc1cccc2[nH]c(-c3cccc(-c4ccc(NC(=O)c5ccc(=O)[nH]n5)cc4)c3)nc12: 101
- CN1CCCN(Cc2ccc(-c3cccc(NC(=O)c4ccc(C#N)cc4)c3)cc2)CC1: 100
- Cc1cnc2ccc(NS(=O)(=O)c3sc4ccc(Cl)cc4c3C)cc2c1N1CCNCC1: 99

Incoming: Item CC(=O)Nc1cccc(-c2cn(-c3ccc(OCc4cccc(F)c4)c(Cl)c3)c3ncncc23)c1 has what recorded growth inhibition?
Outgoing: 100

Incoming: Thanks! And Cc1cc(Nc2ccc(C)c(Cl)c2)n2nc(C(F)(F)F)nc2n1 ?
Outgoing: 98

Incoming: Thanks! And Nc1cc(-c2cccc(Cl)c2)nn1-c1ccnc2cc(Cl)ccc12 ?
Outgoing: 99

Incoming: Thanks! And CCCCCn1c(Sc2ccc(C#N)c([N+](=O)[O-])c2)nnc1-c1ccccc1 ?
Outgoing: 93

Incoming: Thanks! And COc1ccc2c(NN=Cc3ccncc3)cc(C)nc2c1 ?
Outgoing: 99

###

method-notes: antimalarial activity against Dd2 strain (AID 2302);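 also: 0% = DMSO untreated growth and 100% = chloroquine plus artemisinin killed control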
particulars: P. falciparum Dd2 in RBCs, LDH growth readout, 72 h; at 2 µM; stronger effect = higher value
Cut-off 80% on growth inhibition, inclusive. At or above means y; below means n.

Known results for compounds:
- Cc1cccc2[nH]c(-c3cccc(-c4ccc(NC(=O)N[C@@H]5C[C@H]5c5ccccc5)cc4)c3)nc12: n
- CN(CCc1ccccc1)c1ncc(-c2cccc(CNCCC3CCCN3C)c2)cn1 (stereo not given): y

Incoming: Please check the record COc1c(CNCCCCCCNCc2c(OC)c(OC)c3ccccc3c2OC)c(OC)c2ccccc2c1OC and state if its growth inhibition is at or above 80%.
Outgoing: y

###

# growth inhibition annotations
method-notes: inhibition of 3D7 malaria parasite growth – strain 3D7 (AID 2306);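 also: 0% = DMSO wells and 100% = chloroquine plus artemisinin control wells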
particulars: P. falciparum 3D7 erythrocytic growth, LDH absorbance, 72 h; at 2 µM; stronger effect = higher value
Field format: number, assumed %, no unit text.

Incoming: Item COC(=O)c1ccc2nc(-c3ccc(C(=O)NCc4ccc(Cl)c(Cl)c4)cc3)[nH]c2c1 has what recorded growth inhibition?
Outgoing: 95

Incoming: Thanks! And COc1ccc(CN(C)C(=O)CCNS(=O)(=O)c2ccc3c(c2)OCCCO3)cc1F ?
Outgoing: 96

Incoming: Thanks! And Cc1ccc2c(c1)C1(CC(=O)N(CCc3scnc3C)C1=O)C(=O)N2Cc1ccccc1 (centres undefined) ?
Outgoing: 83

Incoming: Thanks! And COc1ccc2nccc([C@@H](O)CN3CCC(NCc4nc5c(F)cccc5[nH]4)CC3)c2c1 ?
Outgoing: 103

Incoming: Thanks! And O=S(=O)(NCCCN1CCOCC1)c1ccc2nccc(Nc3ccc(Oc4ccccc4)cc3)c2c1 ?
Outgoing: 95

###

method-notes: HepG2 cytotoxicity, primary screen, cytotoxicity control for P. falciparum antimalarial project, cell-based, ATP luminescence (AID 2303);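 also: 0% = DMSO wells and 100% = digitonin-killed cells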
particulars: HepG2 viability, 24-48 h, at 10 µM, stronger effect = higher value
# inhibition annotations
Field format: number, assumed %, no unit text.

* CC(C)C[C@H](NC(=O)c1cc2cc(OCCN3CCNCC3)ccc2o1)C(=O)NC1CC[C@@H](C)N(C(=O)Nc2ccc(Cl)cc2)CC1=O (some centres undefined) | -3

Incoming: Item CC(=O)c1ccccc1OCCSc1nnc(Cc2cccs2)n1C1CCCCC1 has what recorded inhibition?
Outgoing: 19

Incoming: Thanks! And Cc1cc(NC(=O)c2cc(Br)ccc2Cl)n(-c2nc(C)c(C)c(=O)[nH]2)n1 ?
Outgoing: 54

Incoming: Thanks! And COc1ccc(Cl)cc1N1CCN(CCCNC(=O)c2ccc(-c3nc4cc(Cl)c(F)cc4[nH]3)cc2)CC1 ?
Outgoing: 3
